test system: SK-MES-1; test: relative viability (nuclei count vs DMSO), 5 days (fraction); higher = more cells survive; conditions: first compound 2.53 µM
Flag rule - relative viability less than 0.6 flags 1; the remaining entries get -1.

- Compound: "C=C1C(=O)O[C@@H](CCCCCCCC)[C@@H]1C(=O)O [C-75] + Nc1ncn([C@H]2C[C@H](O)[C@@H](CO)O2)c(=O)n1 [Decitabine] (partner 2 µM)"
  Category: 1
- Compound: "Oc1nc(-c2ccc(C(F)(F)F)cc2)nc2c1CSCC2 [XAV939] + N=C(N)NC(=N)NCCc1ccccc1 [Phenformin] (partner 250 µM)"
  Category: -1

Please let me know if Oc1nc(-c2ccc(C(F)(F)F)cc2)nc2c1CSCC2 [XAV939] + Cc1cc(Nc2cc(N3CCN(C)CC3)nc(Sc3ccc(NC(=O)C4CC4)cc3)n2)n[nH]1 [Tozasertib] (partner 0.1 µM) shows relative viability below 0.6.
-1

Does this compound meet the criterion relative viability < 0.6? Oc1nc(-c2ccc(C(F)(F)F)cc2)nc2c1CSCC2 [XAV939] + Nc1ncn([C@H]2C[C@H](O)[C@@H](CO)O2)c(=O)n1 [Decitabine] (partner 2 µM)
1

Determine whether this compound shows relative viability lower than 0.6 (ties excluded): C=C1C(=O)O[C@@H](CCCCCCCC)[C@@H]1C(=O)O [C-75] + Cc1nc(Nc2ncc(C(=O)Nc3c(C)cccc3Cl)s2)cc(N2CCN(CCO)CC2)n1 [Dasatinib] (partner 0.075 µM)
1

---

relative viability listing for selected compounds.
system: COR-L 105; assay: relative viability (nuclei count vs DMSO), 5 days (fraction); higher = more cells survive; settings: first compound 1 µM
No unit in the answer, please; the number alone is enough.

Reference set, count: 4
- Compound: "NC(=O)Nc1cc(-c2cccc(F)c2)sc1C(=O)N[C@H]1CCCNC1 [AZD7762] + Cc1nc(NC(=O)N2CCC[C@H]2C(N)=O)sc1-c1ccnc(C(C)(C)C(F)(F)F)c1 [Alpelisib] (partner 2 µM)"
  Result Value: 0.461
- Compound: "NC(=O)Nc1cc(-c2cccc(F)c2)sc1C(=O)N[C@H]1CCCNC1 [AZD7762] + Nc1ncn([C@H]2C[C@H](O)[C@@H](CO)O2)c(=O)n1 [Decitabine] (partner 2 µM)"
  Result Value: 0.508
- Compound: "NC(=O)Nc1cc(-c2cccc(F)c2)sc1C(=O)N[C@H]1CCCNC1 [AZD7762] + COc1cc2c(Oc3ccc(NC(=O)C4(C(=O)Nc5ccc(F)cc5)CC4)cc3F)ccnc2cc1OCCCN1CCOCC1 [Foretinib] (partner 0.25 µM)"
  Result Value: 0.643
- Compound: "NC(=O)Nc1cc(-c2cccc(F)c2)sc1C(=O)N[C@H]1CCCNC1 [AZD7762] + CCNC(=O)c1noc(-c2cc(C(C)C)c(O)cc2O)c1-c1ccc(CN2CCOCC2)cc1 [Luminespib] (partner 0.01 µM)"
  Result Value: 0.401

The recorded relative viability for entry NC(=O)Nc1cc(-c2cccc(F)c2)sc1C(=O)N[C@H]1CCCNC1 [AZD7762] + CS(=O)(=O)N1CCN(Cc2cc3nc(-c4cccc5[nH]ncc45)nc(N4CCOCC4)c3s2)CC1 [Pictilisib] (partner 1 µM) equals 0.242

---

test system: HCC-827; experiment: relative viability (nuclei count vs DMSO), 5 days (fraction); higher = more cells survive; conditions: first compound 0.005 µM
This listing pairs molecules with measured relative viability.
Note: the reply should be a number with no unit written.

Examples with their reported relative viability follow.
- Molecule: "CC1(C)CCC(c2ccc(Cl)cc2)=C(CN2CCN(c3ccc(C(=O)NS(=O)(=O)c4ccc(N[C@H](CCN5CCOCC5)CSc5ccccc5)c(S(=O)(=O)C(F)(F)F)c4)cc3)CC2)C1 [Navitoclax] + NC(=O)Nc1cc(-c2cccc(F)c2)sc1C(=O)N[C@H]1CCCNC1 [AZD7762] (partner 0.2 µM)"
  relative viability: 0.274
- Molecule: "CC1(C)CCC(c2ccc(Cl)cc2)=C(CN2CCN(c3ccc(C(=O)NS(=O)(=O)c4ccc(N[C@H](CCN5CCOCC5)CSc5ccccc5)c(S(=O)(=O)C(F)(F)F)c4)cc3)CC2)C1 [Navitoclax] + N=C(N)NC(=N)NCCc1ccccc1 [Phenformin] (partner 250 µM)"
  relative viability: 0.404

Now take the following molecule into account.
The reported relative viability of the molecule CC1(C)CCC(c2ccc(Cl)cc2)=C(CN2CCN(c3ccc(C(=O)NS(=O)(=O)c4ccc(N[C@H](CCN5CCOCC5)CSc5ccccc5)c(S(=O)(=O)C(F)(F)F)c4)cc3)CC2)C1 [Navitoclax] + Cc1nc(Nc2ncc(C(=O)Nc3c(C)cccc3Cl)s2)cc(N2CCN(CCO)CC2)n1 [Dasatinib] (partner 0.075 µM) was 0.388

---

Catalogue of relative viability values
test system: LCLC-103H; test: relative viability (nuclei count vs DMSO), 5 days (fraction); higher = more cells survive; conditions: first compound 0.3162 µM
Enter the number alone.

Some compounds with recorded relative viability:
- Compound: "NC(=O)Nc1cc(-c2cccc(F)c2)sc1C(=O)N[C@H]1CCCNC1 [AZD7762] + Nc1nc2[nH]cc(CCc3ccc(C(=O)N[C@@H](CCC(=O)O)C(=O)O)cc3)c2c(=O)[nH]1 [Pemetrexed] (partner 0.2 µM)"
  relative viability: 0.452
- Compound: "NC(=O)Nc1cc(-c2cccc(F)c2)sc1C(=O)N[C@H]1CCCNC1 [AZD7762] + CC(C)C[C@H](NC(=O)[C@H](Cc1ccccc1)NC(=O)c1cnccn1)B(O)O [Bortezomib] (partner 0.002 µM)"
  relative viability: 0.95

Form: compound = NC(=O)Nc1cc(-c2cccc(F)c2)sc1C(=O)N[C@H]1CCCNC1 [AZD7762] + C[C@]1(O)C[C@@H](c2nc(-c3ccc4ccc(-c5ccccc5)nc4c3)c3c(N)nccn32)C1 [Linsitinib] (partner 1 µM) ; relative viability = 1.11

---

test system: COR-L 105; assay: relative viability (nuclei count vs DMSO), 5 days (fraction); higher = more cells survive; settings: first compound 0.08 µM
Readout Label: relative viability

- Compound: "Oc1nc(-c2ccc(C(F)(F)F)cc2)nc2c1CSCC2 [XAV939] + COc1cccc2cc(-c3nc([C@H]4CC[C@H](C(=O)O)CC4)n4ncnc(N)c34)[nH]c12 [OSI-027] (partner 0.5 µM)"
  Study System: "COR-L 105"
  relative viability: 0.722
- Compound: "C=C1C(=O)O[C@@H](CCCCCCCC)[C@@H]1C(=O)O [C-75] + Cc1cc(Nc2cc(N3CCN(C)CC3)nc(Sc3ccc(NC(=O)C4CC4)cc3)n2)n[nH]1 [Tozasertib] (partner 0.1 µM)"
  Study System: "COR-L 105"
  relative viability: 0.366
- Compound: "Oc1nc(-c2ccc(C(F)(F)F)cc2)nc2c1CSCC2 [XAV939] + Cc1nc(NC(=O)N2CCC[C@H]2C(N)=O)sc1-c1ccnc(C(C)(C)C(F)(F)F)c1 [Alpelisib] (partner 2 µM)"
  Study System: "COR-L 105"
  relative viability: 1.14
- Compound: "C=C1C(=O)O[C@@H](CCCCCCCC)[C@@H]1C(=O)O [C-75] + COc1cccc2cc(-c3nc([C@H]4CC[C@H](C(=O)O)CC4)n4ncnc(N)c34)[nH]c12 [OSI-027] (partner 0.5 µM)"
  Study System: "COR-L 105"
  relative viability: 0.709
- Compound: "Oc1nc(-c2ccc(C(F)(F)F)cc2)nc2c1CSCC2 [XAV939] + CC(C)C[C@H](NC(=O)[C@H](Cc1ccccc1)NC(=O)c1cnccn1)B(O)O [Bortezomib] (partner 0.002 µM)"
  Study System: "COR-L 105"
  relative viability: 0.853
- Compound: "Oc1nc(-c2ccc(C(F)(F)F)cc2)nc2c1CSCC2 [XAV939] + Cc1cc(Nc2cc(N3CCN(C)CC3)nc(Sc3ccc(NC(=O)C4CC4)cc3)n2)n[nH]1 [Tozasertib] (partner 0.1 µM)"
  Study System: "COR-L 105"
  relative viability: 0.358

According to the records, this compound C=C1C(=O)O[C@@H](CCCCCCCC)[C@@H]1C(=O)O [C-75] + C[C@]1(O)C[C@@H](c2nc(-c3ccc4ccc(-c5ccccc5)nc4c3)c3c(N)nccn32)C1 [Linsitinib] (partner 1 µM) displays relative viability of 0.993

Query Oc1nc(-c2ccc(C(F)(F)F)cc2)nc2c1CSCC2 [XAV939] + Nc1ncn([C@H]2C[C@H](O)[C@@H](CO)O2)c(=O)n1 [Decitabine] (partner 2 µM) yields relative viability of 0.719

The compound C=C1C(=O)O[C@@H](CCCCCCCC)[C@@H]1C(=O)O [C-75] + COc1cc2c(Oc3ccc(NC(=O)C4(C(=O)Nc5ccc(F)cc5)CC4)cc3F)ccnc2cc1OCCCN1CCOCC1 [Foretinib] (partner 0.25 µM) showed relative viability equal to 0.934

Lab note: C=C1C(=O)O[C@@H](CCCCCCCC)[C@@H]1C(=O)O [C-75] + CC(=O)Nc1cccc(-n2c(=O)n(C3CC3)c(=O)c3c(Nc4ccc(I)cc4F)n(C)c(=O)c(C)c32)c1 [Trametinib] (partner 0.02 µM) gave relative viability of 0.425

Briefly, relative viability measured for C=C1C(=O)O[C@@H](CCCCCCCC)[C@@H]1C(=O)O [C-75] + CS(=O)(=O)N1CCN(Cc2cc3nc(-c4cccc5[nH]ncc45)nc(N4CCOCC4)c3s2)CC1 [Pictilisib] (partner 1 µM) : 0.437

Summary for this compound, C=C1C(=O)O[C@@H](CCCCCCCC)[C@@H]1C(=O)O [C-75] + N=C(N)NC(=N)NCCc1ccccc1 [Phenformin] (partner 250 µM) : relative viability is 0.507
